Experiment: In vitro stability (D/H exchange, enantiomerization, degradation) in human plasma
Type: in vitro ADME
Conditions: human, plasma (K3EDTA), 37° C., calculated half-life, read-out: t1/2 enantiomerization −+ (h− to h+) (converted)
experimentalReadout: half-life (h)
Please reply with the bare figure in h and do not write the unit itself.

Incoming: Check the records and state half-life for CCc1ccc(C(=O)COc2ccc(CC3SC(=O)NC3=O)cc2)nc1 (single isomer, unassigned; (-)) [h−]
Outgoing: 1.9

* * *

Assay: In vitro stability (D/H exchange, enantiomerization, degradation) in CD-1 mouse plasma
Type: in vitro ADME
Conditions: CD-1, mouse, plasma (K3EDTA), 37° C., calculated half-life, read-out: t1/2 enantiomerization +− (h+ to h−) (converted)
experimentalReadout: half-life (h)
Please reply with the bare figure in h and do not write the unit itself.

Incoming: Check the records and state half-life for CCc1ccc(C(=O)COc2ccc(CC3SC(=O)NC3=O)cc2)nc1 (single isomer, unassigned; (+))
Outgoing: 1.4
